# pIC50 annotations
Target: USP7 (Homo sapiens, UniProt Q93009)
Construct: His tag (from pFastBac-HT vector) (N); made in house; host or cells: insect cells (Sf9 or High Five), baculovirus
Sequence (Q93009 whole entry): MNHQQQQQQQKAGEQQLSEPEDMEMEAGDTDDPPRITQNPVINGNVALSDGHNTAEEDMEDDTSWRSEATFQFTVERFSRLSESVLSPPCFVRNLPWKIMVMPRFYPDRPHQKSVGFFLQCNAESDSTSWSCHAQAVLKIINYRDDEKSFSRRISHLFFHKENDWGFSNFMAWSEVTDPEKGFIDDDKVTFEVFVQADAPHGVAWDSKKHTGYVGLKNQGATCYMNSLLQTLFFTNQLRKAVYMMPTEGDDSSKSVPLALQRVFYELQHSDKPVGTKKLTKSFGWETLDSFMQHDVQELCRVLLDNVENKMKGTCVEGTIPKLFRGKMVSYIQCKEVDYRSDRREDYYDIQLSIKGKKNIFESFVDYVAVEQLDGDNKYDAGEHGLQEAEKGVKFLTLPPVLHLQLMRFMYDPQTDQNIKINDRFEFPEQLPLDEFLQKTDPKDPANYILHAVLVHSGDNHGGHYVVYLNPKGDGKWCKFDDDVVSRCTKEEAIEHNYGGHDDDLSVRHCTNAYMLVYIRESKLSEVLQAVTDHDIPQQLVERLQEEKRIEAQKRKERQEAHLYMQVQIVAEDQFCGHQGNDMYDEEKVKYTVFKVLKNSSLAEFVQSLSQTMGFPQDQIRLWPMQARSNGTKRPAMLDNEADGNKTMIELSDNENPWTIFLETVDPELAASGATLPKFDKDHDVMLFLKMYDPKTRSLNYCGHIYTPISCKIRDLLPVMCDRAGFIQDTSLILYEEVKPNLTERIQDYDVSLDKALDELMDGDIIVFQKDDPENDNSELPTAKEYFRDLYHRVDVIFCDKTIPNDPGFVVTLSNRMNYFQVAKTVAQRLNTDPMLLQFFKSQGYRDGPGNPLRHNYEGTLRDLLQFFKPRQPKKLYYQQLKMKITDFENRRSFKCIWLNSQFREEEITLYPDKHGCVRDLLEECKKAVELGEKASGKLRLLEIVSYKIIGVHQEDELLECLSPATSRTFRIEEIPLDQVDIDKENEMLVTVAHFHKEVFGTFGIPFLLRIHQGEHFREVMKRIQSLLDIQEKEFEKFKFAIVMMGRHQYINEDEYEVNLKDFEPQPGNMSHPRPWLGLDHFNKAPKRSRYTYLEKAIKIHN
Test: USP7 activity assay
Type: biochemical
pIC50: −log10 of the molar value.
Assay endpoint: pIC50

In [3]: df
Out[3]:
                                   compound  assay_endpoint  result
0  N#Cc1nc2c(nc1C#N)-c1ccc(Cl)cc1C2=NOCCOc1ccccc1 [Example 27b]           pIC50  < 4.00
1          N#Cc1nc2c(nc1O)-c1ccc(Cl)cc1C2=O           pIC50  < 4.00
2  CON=C1c2ccccc2-c2nc(C#N)c(C#N)nc21 [Example 13a]           pIC50  < 4.00
